# ASSAY_OVERVIEW: Tmax in rat at 20 mg/kg, po
# Assay type: ADME, organism-based
# Design: dose 20 mg/kg, route oral
# MEASUREMENT_CONTEXT: in vivo
PROPERTY_MEASURED: Tmax (min)
Report the figure in min without appending any unit label.

# get_value(readout='Tmax', item= "OC12CC3CC(C1)CC(Nc1nc(N[C@H]4CC[C@H](O)CC4)ncc1C(F)(F)F)(C3)C2" ) 30

----------
# SYSTEM_UNDER_TEST: UniProtKB P49840
# Sequence (P49840 whole entry): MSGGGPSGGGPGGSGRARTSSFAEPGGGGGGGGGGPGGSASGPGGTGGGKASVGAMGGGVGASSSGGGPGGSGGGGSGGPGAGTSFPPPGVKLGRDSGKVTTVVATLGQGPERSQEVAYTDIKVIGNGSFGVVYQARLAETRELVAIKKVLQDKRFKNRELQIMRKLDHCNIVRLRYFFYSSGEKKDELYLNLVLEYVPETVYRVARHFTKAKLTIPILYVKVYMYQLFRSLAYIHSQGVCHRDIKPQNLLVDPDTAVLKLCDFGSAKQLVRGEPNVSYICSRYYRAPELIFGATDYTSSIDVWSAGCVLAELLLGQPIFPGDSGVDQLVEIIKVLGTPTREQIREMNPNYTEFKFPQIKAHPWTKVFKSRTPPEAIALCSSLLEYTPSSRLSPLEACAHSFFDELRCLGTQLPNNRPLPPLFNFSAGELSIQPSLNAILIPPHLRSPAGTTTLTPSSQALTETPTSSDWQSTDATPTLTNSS
API: label(entry) gives condition met if the entry's IC50 is strictly smaller than 100 nM; on equality or larger values it gives condition not met.

Reference set (4 entries):
> print(dat)
                              record.smiles  system.under.test  assigned.category
1  O=C(O)c1ccc(Nc2ncc3nnn(-c4ccccc4)c3n2)cc1   UniProtKB P49840      condition met
2  O=C(O)c1ccc(Nc2ncc3nnn(C45CC6CC(CC(O)(C6)C4)C5)c3n2)cc1   UniProtKB P49840      condition met
3  O=C(O)c1ccc(Nc2ncc([N+](=O)[O-])c(Nc3ccccc3)n2)cc1   UniProtKB P49840  condition not met
4  COC(=O)COc1ccc(Nc2ncc3nnn(-c4ccccc4)c3n2)cc1   UniProtKB P49840  condition not met

Check if IC50 falls below 100 nM for "OC12CC3CC(C1)CC(Nc1nc(N[C@H]4CC[C@H](O)CC4)ncc1F)(C3)C2" . condition not met

Next entry: "O=C(O)/C=C\c1ccc(Nc2ncc3nnn(-c4ccccc4)c3n2)cc1" condition met

Now give it for "O=C(O)COc1ccc(Nc2ncc([N+](=O)[O-])c(Nc3ccccc3)n2)cc1" too. condition met

Data origin: ChEMBL document CHEMBL1145583
